Items are presented alongside their recorded herbicidal damage, ABUTH.
# System: Monocotyledonous and dicotyledonous test plants
# EXPERIMENT_SUMMARY: Herbicidal action prior to emergence of the plants (pre-emergence action), Example B1
# Type: in vivo
# APPLIED_CONDITIONS: preemergence application, 250 g/ha, ABUTH, evaluated after 4 weeks; 100%=total damage, 0%=no damage
Your answer is read as %, so omit the unit and give the number.

Some compounds with recorded herbicidal damage, ABUTH:
>>> print(df.to_string())
                                   compound                              study_target                  property  quantitative_readout
0  CC1(C)C(=O)C(C(=O)c2ccc(C(F)(F)F)n3c(-c4ccc(Cl)cc4)nnc23)=C(O)C(C)(C)C1=O [Compound 5.10]  Monocotyledonous and dicotyledonous test plants  herbicidal damage, ABUTH                   100
1  CC(C)c1nnc2c(C(=O)C3=C(O)CCCC3=O)ccc(C(F)(F)F)n12 [Compound 3.6]  Monocotyledonous and dicotyledonous test plants  herbicidal damage, ABUTH                    90
2  O=C1CCCC(O)=C1C(=O)c1ccc(C(F)(F)F)n2c(Cl)nnc12 [Compound 3.2]  Monocotyledonous and dicotyledonous test plants  herbicidal damage, ABUTH                   100
3  Cc1nc2c(C(=O)C3=C(O)C(C)(C)C(=O)C(C)(C)C3=O)ccc(C(F)(F)F)n2n1 [13.3]  Monocotyledonous and dicotyledonous test plants  herbicidal damage, ABUTH                   100
4  CCc1nnc2c(C(=O)C3=C(O)CCCC3=O)ccc(C(F)(F)F)n12 [Compound 3.5]  Monocotyledonous and dicotyledonous test plants  herbicidal damage, ABUTH                   100

Q: Give the measured herbicidal damage, ABUTH for Cc1nnc2c(C(=O)c3cnn(C)c3O)ccc(C(F)(F)F)n12 [Compound 6.3]
A: 10

Q: Give the measured herbicidal damage, ABUTH for CCOc1nc2c(C(=O)C3=C(O)C4CCC(C4)C3=O)ccc(C(F)(F)F)n2n1 (stereo not shown) [2.209]
A: 100

Q: Give the measured herbicidal damage, ABUTH for COCc1nnc2c(C(=O)C3=C(O)C4CCC(C4)C3=O)ccc(C(F)(F)F)n12 (stereo not shown) [Compound 1.16]
A: 100

Q: Give the measured herbicidal damage, ABUTH for Cc1nc2c(C(=O)C3=C(O)C4CCC(C4)C3=O)ccc(C(F)(F)F)n2n1 (stereo not shown) [2.4]
A: 70

Q: Give the measured herbicidal damage, ABUTH for CC(C)c1nnc2c(C(=O)C3=C(O)C4CCC(C4)C3=O)ccc(C(F)(F)F)n12 (stereo not shown) [Compound 1.7]
A: 100

----------
Items are presented alongside their recorded herbicidal damage, DIGSA.
# System: Monocotyledonous and dicotyledonous test plants
# EXPERIMENT_SUMMARY: Herbicidal action prior to emergence of the plants (pre-emergence action), Example B1
# Type: in vivo
# APPLIED_CONDITIONS: preemergence application, 250 g/ha, DIGSA, evaluated after 4 weeks; 100%=total damage, 0%=no damage
Your answer is read as %, so omit the unit and give the number.

Some molecules with recorded herbicidal damage, DIGSA:
                                   molecule  quantitative_readout
0  COCc1nnc2c(C(=O)C3=C(O)C4CCC(C4)C3=O)ccc(C(F)(F)F)n12 (stereo not drawn)                    80
1  O=C1CCCC(O)=C1C(=O)c1ccc(C(F)(F)F)n2cnnc12                   100
2  CCc1nnc2c(C(=O)C3=C(O)CCCC3=O)ccc(C(F)(F)F)n12                    90

Q: Give the measured herbicidal damage, DIGSA for "O=C1CCCC(O)=C1C(=O)c1ccc(C(F)(F)F)n2c(Cl)nnc12"
A: 80

Q: Give the measured herbicidal damage, DIGSA for O=C(C1=C(O)C2CCC(C2)C1=O)c1ccc(C(F)(F)F)n2c(-c3ccc(Cl)cc3)nnc12 (stereo not drawn)
A: 100

Q: Give the measured herbicidal damage, DIGSA for "O=C1CCCC(O)=C1C(=O)c1ccc(C(F)(F)F)n2c(OC(F)F)nnc12"
A: 10

Q: Give the measured herbicidal damage, DIGSA for "Cc1nnc2c(C(=O)c3cnn(C)c3O)ccc(C(F)(F)F)n12"
A: 30

Q: Give the measured herbicidal damage, DIGSA for "CC(C)c1nnc2c(C(=O)C3=C(O)CCCC3=O)ccc(C(F)(F)F)n12"
A: 90

Q: Give the measured herbicidal damage, DIGSA for O=C(C1=C(O)C2CCC(C2)C1=O)c1ccc(C(F)(F)F)n2ncnc12 (stereo not drawn)
A: 100

Q: Give the measured herbicidal damage, DIGSA for CCc1nnc2c(C(=O)C3=C(O)C4CCC(C4)C3=O)ccc(C(F)(F)F)n12 (stereo not drawn)
A: 100

----------
# System: Monocotyledonous and dicotyledonous test plants
# EXPERIMENT_SUMMARY: Herbicidal action after emergence of the plants (post-emergence herbicidal action), Example B2
# Format: in vivo
# APPLIED_CONDITIONS: postemergent application, 125 g/ha, CHEAL, 2- to 3-leaf stage, evaluated after 2-3 weeks; 100%=total damage
PROPERTY: herbicidal damage, CHEAL (%)
Your answer is read as %, so omit the unit and give the number.

Some compounds with recorded herbicidal damage, CHEAL:
>>> print(df.to_string())
                                   compound                  property  unit_annotation  quantitative_readout
0  O=C(C1=C(O)C2CCC(C2)C1=O)c1ccc(C(F)(F)F)n2c(Cl)nnc12 (stereo not shown)  herbicidal damage, CHEAL                %                    80
1  O=C1CCCC(O)=C1C(=O)c1ccc(C(F)(F)F)n2c(Br)nnc12  herbicidal damage, CHEAL                %                    80
2  Cc1nc2c(C(=O)C3=C(O)C4CCC(C4)C3=O)ccc(C(F)(F)F)n2n1 (stereo not shown)  herbicidal damage, CHEAL                %                    80

Q: Give the measured herbicidal damage, CHEAL for "Cc1nnc2c(C(=O)c3cnn(C)c3O)ccc(C(F)(F)F)n12"
A: 70

Q: Give the measured herbicidal damage, CHEAL for "Cc1nc2c(C(=O)C3=C(O)C(C)(C)C(=O)C(C)(C)C3=O)ccc(C(F)(F)F)n2n1"
A: 50

Q: Give the measured herbicidal damage, CHEAL for "CC(C)c1nnc2c(C(=O)C3=C(O)C(C)(C)C(=O)C(C)(C)C3=O)ccc(C(F)(F)F)n12"
A: 80

----------
# System: Monocotyledonous and dicotyledonous test plants
# EXPERIMENT_SUMMARY: Herbicidal action prior to emergence of the plants (pre-emergence action), Example B1
# Type: in vivo
# APPLIED_CONDITIONS: preemergence application, 250 g/ha, ECHCG, evaluated after 4 weeks; 100%=total damage, 0%=no damage
PROPERTY: herbicidal damage, ECHCG (%)
Your answer is read as %, so omit the unit and give the number.

Some molecules with recorded herbicidal damage, ECHCG:
>>> print(df.to_string())
                                   molecule  quantitative_readout
0  CC(C)c1nc2c(C(=O)C3=C(O)C4CCC(C4)C3=O)ccc(C(F)(F)F)n2n1 (stereo not shown)                    10
1  CCc1nnc2c(C(=O)C3=C(O)C4CCC(C4)C3=O)ccc(C(F)(F)F)n12 (stereo not shown)                    60
2  CCCC1CCC(=O)C(C(=O)c2ccc(C(F)(F)F)n3c(C)nnc23)=C1O (stereo not shown)                    70

Q: Give the measured herbicidal damage, ECHCG for "Cc1nnc2c(C(=O)C3=C(O)C(C)(C)C(=O)C(C)(C)C3=O)ccc(C(F)(F)F)n12"
A: 100

----------
# Tested on: Monocotyledonous and dicotyledonous test plants
# EXPERIMENT_SUMMARY: Herbicidal action prior to emergence of the plants (pre-emergence action), Example B1
# Assay type: in vivo
# APPLIED_CONDITIONS: preemergence application, 250 g/ha, BRAPL, evaluated after 4 weeks; 100%=total damage, 0%=no damage
PROPERTY: herbicidal damage, BRAPL (%)
Your answer is read as %, so omit the unit and give the number.

Some molecules with recorded herbicidal damage, BRAPL:
>>> print(df.to_string())
                                   molecule  unit_annotation  quantitative_readout
0  CC(C)c1nnc2c(C(=O)C3=C(O)C4CCC(C4)C3=O)ccc(C(F)(F)F)n12 (centres unmarked) [Compound 1.7]                %                    80
1  O=C(C1=C(O)C2CCC(C2)C1=O)c1ccc(C(F)(F)F)n2ncnc12 (centres unmarked) [2.1]                %                   100
2  Cc1nnc2c(C(=O)C3=C(O)CC(C)CC3=O)ccc(C(F)(F)F)n12 (centres unmarked) [Compound 4.3]                %                   100
3  Cc1nnc2c(C(=O)C3=C(O)CCCC3=O)ccc(C(F)(F)F)n12 [Compound 3.4]                %                    80

API: the following record is the query input.
Q: Give the measured herbicidal damage, BRAPL for Cc1nc2c(C(=O)C3=C(O)CCCC3=O)ccc(C(F)(F)F)n2n1 [Compound 11.3]
A: 50
